Target: human A3 receptor (Homo sapiens, UniProt P0DMS8)
Construct: expressed in transfected cells; host or cells: CHO
Sequence (P0DMS8 whole entry): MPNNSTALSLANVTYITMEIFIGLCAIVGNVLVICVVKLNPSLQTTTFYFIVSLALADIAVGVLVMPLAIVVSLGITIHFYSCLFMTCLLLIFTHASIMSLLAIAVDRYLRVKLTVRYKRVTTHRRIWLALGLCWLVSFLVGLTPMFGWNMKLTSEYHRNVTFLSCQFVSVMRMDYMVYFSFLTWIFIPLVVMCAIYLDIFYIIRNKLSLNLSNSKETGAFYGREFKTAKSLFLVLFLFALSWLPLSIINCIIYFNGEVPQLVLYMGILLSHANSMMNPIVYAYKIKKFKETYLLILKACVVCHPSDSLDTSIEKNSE
Assay: Functional A3 receptor activity, recombinant CHO cells, cAMP (HTRF), forskolin, agonist IB-MECA
Type: cell-based
Settings: recombinant CHO cells, forskolin, agonist IB-MECA; read-out: Functional A3 receptor activity, CHO, cAMP, IC50
pIC50: −log10 of the molar value.
metric.name: pIC50

Recorded pIC50, per entry:
molecule="COc1ncc(C2=CCOC2)c2sc(NC(=O)N3CCC4(CCCOC4)C3)nc12 (stereo not shown)" metric_name=pIC50 value="< 6.00"
molecule=COC(=O)N(C)Cc1ccc(C(=O)Nc2nc3c(OC)ncc(C4=CCOCC4)c3s2)cc1 metric_name=pIC50 value="< 6.00"
molecule=COc1nc(F)c(-c2ccc(F)cc2)c2sc(NC(=O)N3CCC4(CCOCC4)C3)nc12 metric_name=pIC50 value="< 6.00"
molecule=COc1ncc(-c2ccccc2)c2sc(NC(=O)c3ccc(C(=O)O)cc3)nc12 metric_name=pIC50 value="< 6.00"
molecule=CNc1cccc(-c2cnc(OC)c3nc(NC(=O)N4CCC5(CCOCC5)C4)sc23)c1 metric_name=pIC50 value="< 6.00"

Go through the items and report each one's pIC50.
1. COc1ncc(C2=CCOCC2)c2sc(NC(=O)Nc3ccc(NC(C)=O)c(C)c3)nc12
2. COc1ncc(C2=CCOCC2)c2sc(NC(=O)N3CCC4(CCNCC4)C3)nc12
3. COc1ncc(-c2csc(C)n2)c2sc(NC(=O)N3CCC4(CCOCC4)C3)nc12
4. COc1ncc(-c2ccoc2)c2sc(NC(=O)N3CCC4(CCOCC4)C3)nc12

Given back:
1. > 6.00
2. < 6.00
3. < 6.00
4. < 6.00
